# ASSAY: Selectivity ratio of IC50 for equine serum BChE to IC50 for electric eel AChE
Record satisfied whenever Ratio IC50 is at 0.8 or higher; record not satisfied when lower.

| STRUCTURE STRING | CATEGORY LABEL |
| --- | --- |
| COc1cc(CNCCCN2CCN(Cc3ccccc3)CC2)ccc1O | satisfied |
| c1ccc(CC2CCN(CCCNCc3cccnc3)CC2)cc1 | satisfied |
| c1ccc(CC2CCN(CCCCNCc3cccnc3)CC2)cc1 | satisfied |
| COc1cc(CNCCN2CCN(Cc3ccccc3)CC2)cc(OC)c1OC | not satisfied |
| COc1cc(CNCCCCN2CCC(Cc3ccccc3)CC2)ccc1O | not satisfied |
| COc1cc(CNCCCN2CCN(Cc3ccccc3)CC2)cc(OC)c1OC | not satisfied |

---

# TGT: Amyloid-beta precursor protein (Homo sapiens)
# ASSAY: Ratio of curcumin to compound for self-mediated amyloid beta (1 to 42) (unknown origin) aggregation at 25 uM after 48 hrs by thioflavin T fluorescence assay relative to control
RECORDED METRIC: Ratio

| STRUCTURE STRING | TGT | READOUT VALUE |
| --- | --- | --- |
| COc1cc(CNCCCCN2CCN(Cc3ccccc3)CC2)cc(OC)c1OC | Amyloid-beta precursor protein (Homo sapiens) | 1.71 |
| COc1cc(CNCCCN2CCN(Cc3ccccc3)CC2)cc(OC)c1OC | Amyloid-beta precursor protein (Homo sapiens) | 1.71 |
| COc1cc(CNCCCCN2CCC(Cc3ccccc3)CC2)cc(OC)c1OC | Amyloid-beta precursor protein (Homo sapiens) | 1.51 |
| COc1cc(CNCCCN2CCC(Cc3ccccc3)CC2)cc(OC)c1OC | Amyloid-beta precursor protein (Homo sapiens) | 1.51 |
| c1ccc(CC2CCN(CCNCc3cccnc3)CC2)cc1 | Amyloid-beta precursor protein (Homo sapiens) | 1.51 |
| COc1cc(CNCCCN2CCC(Cc3ccccc3)CC2)ccc1O | Amyloid-beta precursor protein (Homo sapiens) | 1.51 |
| c1ccc(CC2CCN(CCCNCc3cccnc3)CC2)cc1 | Amyloid-beta precursor protein (Homo sapiens) | 1.51 |
| COc1cc(CNCCN2CCC(Cc3ccccc3)CC2)ccc1O | Amyloid-beta precursor protein (Homo sapiens) | 1.51 |
| COc1ccc(CNCCCN2CCN(Cc3ccccc3)CC2)cc1OC | Amyloid-beta precursor protein (Homo sapiens) | 1.71 |

---

# ASSAY: Antioxidant activity assessed as trolox equivalent of AAPH radical scavenging activity at 1 to 10 uM preincubated for 15 mins followed by AAPH challenge measured every min for 80 mins by ORAC-FL assay
Listed here: items and their measured Activity.

| STRUCTURE STRING | Activity / equiv |
| --- | --- |
| c1ccc(CC2CCN(CCNCc3cccnc3)CC2)cc1 | 1.32 |
| COc1cc(CNCCCCN2CCN(C(c3ccccc3)c3ccccc3)CC2)cc(OC)c1OC | 1.63 |
| c1ccc(CN2CCN(CCCNCc3cccnc3)CC2)cc1 | 0.65 |
| COc1ccc(CNCCN2CCN(C(c3ccccc3)c3ccccc3)CC2)cc1OC | 1.77 |

---

Listed here: items and their measured Ratio IC50.
# ASSAY: Selectivity ratio of IC50 for equine serum BChE to IC50 for electric eel AChE

| STRUCTURE STRING | Ratio IC50 |
| --- | --- |
| COc1ccc(CNCCN2CCN(Cc3ccccc3)CC2)cc1OC | 0.4 |
| COc1cc(CNCCN2CCC(Cc3ccccc3)CC2)ccc1O | 0.1 |
| COc1cc(CNCCN2CCN(Cc3ccccc3)CC2)ccc1O | 0.1 |
| COc1cc(CNCCCN2CCC(Cc3ccccc3)CC2)ccc1O | 1.11 |
| COc1ccc(CNCCCN2CCN(Cc3ccccc3)CC2)cc1OC | 2.94 |

---

# TGT: Cholinesterase (Equus caballus)
# Sequence (P81908 whole entry): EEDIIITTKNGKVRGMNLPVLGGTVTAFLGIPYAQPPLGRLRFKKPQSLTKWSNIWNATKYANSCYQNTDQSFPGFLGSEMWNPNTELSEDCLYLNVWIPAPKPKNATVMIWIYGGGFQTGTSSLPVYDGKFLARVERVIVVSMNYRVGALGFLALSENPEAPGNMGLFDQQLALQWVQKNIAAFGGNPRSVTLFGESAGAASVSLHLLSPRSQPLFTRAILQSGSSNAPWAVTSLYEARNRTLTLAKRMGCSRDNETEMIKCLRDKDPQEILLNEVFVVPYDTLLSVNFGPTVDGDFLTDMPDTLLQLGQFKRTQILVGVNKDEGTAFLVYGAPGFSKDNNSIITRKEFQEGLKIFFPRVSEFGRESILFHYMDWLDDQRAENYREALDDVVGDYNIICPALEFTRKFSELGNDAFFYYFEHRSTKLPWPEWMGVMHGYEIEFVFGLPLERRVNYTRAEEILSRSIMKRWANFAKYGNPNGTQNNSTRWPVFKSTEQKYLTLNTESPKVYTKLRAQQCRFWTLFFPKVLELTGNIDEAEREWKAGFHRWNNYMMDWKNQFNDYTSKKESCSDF
# ASSAY: Inhibition of equine serum BChE using butyrylthiocholine iodide as substrate incubated for 5 mins by Ellman's method
RECORDED METRIC: IC50

| STRUCTURE STRING | READOUT VALUE |
| --- | --- |
| COc1cc(CNCCN2CCN(Cc3ccccc3)CC2)cc(OC)c1OC | 75.1 nM |
| c1ccc(CC2CCN(CCCNCc3cccnc3)CC2)cc1 | 81.7 nM |
| c1ccc(CC2CCN(CCNCc3cccnc3)CC2)cc1 | 101 nM |
| c1ccc(CN2CCN(CCNCc3cccnc3)CC2)cc1 | 129 nM |
| c1ccc(CN2CCN(CCCCNCc3cccnc3)CC2)cc1 | 104 nM |
| COc1ccc(CNCCN2CCC(Cc3ccccc3)CC2)cc1OC | 77.7 nM |
| COc1ccc(CNCCCCN2CCN(Cc3ccccc3)CC2)cc1OC | 142 nM |
